# Tested on: Pig primary RPE cells
# TEST_METHOD_NOTES: Transepithelial resistance (TER) of RPE monolayers under oxidative stress (H2O2 and serum as source of complement)
# Type: cell-based
# STUDY_CONDITIONS: Sus scrofa, RPE; pretreatment 1 hour prior to stressors; tested at 5 nM-1 μM; FIG. 4; read-out: ED50 (reduction of oxidative stress-mediated TER loss)
pEC50: −log10 of the molar value.
I'd appreciate it if you could supply pEC50 values for the items below.

O=C(N[C@@H]1C2CCN(CC2)[C@H]1Cc1cccnc1)c1cc(F)cc(F)c1 :: > 7.30

IN: Could you tell me which pEC50 is on file for C(=C\[C@H]1CCNC1)/c1cncnc1 ?
OUT: ~6.70

###

# Tested on: Pig primary RPE cells
# TEST_METHOD_NOTES: Transepithelial resistance (TER) of RPE monolayers under oxidative stress (H2O2 and serum as source of complement)
# Format: cell-based
# STUDY_CONDITIONS: pairwise comparison versus Compound B; 100 nM; Significance Level 5%
I'd appreciate it if you could supply Mean Diff., Fisher's PLSD for 100 nM effect: treatment values for the items below.
One number for each entry.

Worked cases, Mean Diff., Fisher's PLSD for 100 nM effect: treatment given:
c1cncc(C2CC3CCN2CC3)c1 (stereo not shown) :: −8.023
C(=C\[C@H]1CCNC1)/c1cncnc1 :: 25.718
O=C(N[C@@H]1C2CCN(CC2)[C@H]1Cc1cccnc1)c1cc(F)cc(F)c1 :: 2.066

Continue with the next molecule.
IN: Could you tell me which Mean Diff., Fisher's PLSD for 100 nM effect: treatment is on file for CN[C@@]1(C)[C@@H]2CC[C@@H](C2)C1(C)C [Compound A, exo-S-mecamylamine] ?
OUT: −14.209

###

# System: Pig primary RPE cells
# TEST_METHOD_NOTES: Transepithelial resistance (TER) of RPE monolayers under oxidative stress (H2O2 and serum as source of complement)
# Assay type: cell-based
# STUDY_CONDITIONS: pairwise comparison versus Compound B; dose response profiles; Significance Level 5%
MEASUREMENT_TYPE: Mean Diff., Fisher's PLSD for nicotine effect: treatment
Give bare numbers.

Worked cases, Mean Diff., Fisher's PLSD for nicotine effect: treatment given:
C(=C\[C@H]1CCNC1)/c1cncnc1 :: 17.682
c1cncc(C2CC3CCN2CC3)c1 (stereo not shown) :: −7.179
O=C(N[C@@H]1C2CCN(CC2)[C@H]1Cc1cccnc1)c1cc(F)cc(F)c1 :: −2.035

IN: Could you tell me which Mean Diff., Fisher's PLSD for nicotine effect: treatment is on file for CN[C@@]1(C)[C@@H]2CC[C@@H](C2)C1(C)C [Compound A, exo-S-mecamylamine] ?
OUT: −16.538

Provenance of the data: patent US20110098312A1
